The values you see were collected from ChEMBL document CHEMBL2331541.

- experiment: Binding affinity to Pseudomonas aeruginosa apo Heme oxygenase expressed in Escherichia coli BL21(DE3) assessed as decrease in tryptophan fluorescence
Please respond with reported Kd for every item in the list.
Give the value; after it, write the unit.

Q. Give recorded Kd. O=C(O)/C=C/C(=O)Nc1ccc(Oc2ccccc2)cc1
A. 29.3 µM

Provide Kd for all items below, preserving their order.
1. O=C(O)/C=C/C(=O)Nc1ccc(Nc2ccccc2)cc1
2. CN(C)c1ccc(/C=N/NC(=N)N)cc1

A.
1: 18.4 µM; 2: 31.2 µM
